# System: DYRK2
# condition-parameters: concentration: 1 μM, replicates: in singlicate; n = 1;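 note: KINOMEscan kinase panel screen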
assay-endpoint: %Inh (%)
API: value field is a number in %; no unit string.

// worked examples, %Inh included
>>> readout_value("Cl.NC(=O)c1cccc(Nc2nccc(Nc3ccc(Oc4cccc(Cl)c4)c(Cl)c3)n2)c1 [GW659008]")
13
>>> readout_value("Fc1cccc(COc2nnc(-c3ccc4c(c3)CCO4)o2)c1")
3
>>> readout_value("Cc1cc(N2Cc3ccccc3C2)nc(Nc2ccc(S(=O)(=O)N3CCOCC3)cc2)n1.Cl [GSK1669917]")
0

Name the recorded %Inh for Cc1ccc(-c2cc(-c3c[nH]nc3-c3ccccn3)ccn2)cc1 [GW684088] .
0

Please report the recorded %Inh for Cc1csc(-c2nc(Nc3ccncc3)c3ccccc3n2)n1 [GW869640] .
29

Any idea what %Inh was measured for CN1C(=O)C(Nc2ccc(Cl)c(C(=O)O)c2)=C(c2ccc(Cl)cc2)C1=O [SB-404290] ?
0

%Inh for CC(C)(C)c1ccc(C(=O)Nc2cn3cc(Cl)ccc3n2)cc1 ?
0

# query: %Inh of entry Cc1cccc(-c2nc(Nc3ccncc3)c3ccccc3n2)n1 [GW855857]
0

Name the reported %Inh value associated with the compound Cc1ccc(C(=O)Nc2ccc(Nc3ccnc4cc(-c5ccccn5)ccc34)cc2O)cc1.Cl [GW440146]
0

Fill in: %Inh of Fc1cc(Cl)ccc1Nc1ccnc2cc(-c3ccc(CN4CCCCC4)o3)ccc12 [GW560116] is ___
9

%Inh lookup needed for Cc1c(O)cccc1Nc1ccnc2ccc(C(F)(F)F)cc12.Cl [GW466413] , thanks.
0

====

Quick reference: %Inh of the listed items.
# Tested on: SIK
# condition-parameters: concentration: 1 μM, replicates: in singlicate; n = 1
Please reply with the bare figure in % and do not write the unit itself.

Study these solved cases before continuing.
>>> readout_value("CCCc1ccc(S(=O)(=O)NC2CCN(c3ccnc(Nc4ccc(F)cc4)n3)C2)cc1 (stereo not drawn) [GSK1379715]")
0
>>> readout_value("O=C(Nc1n[nH]c2nc(-c3nccs3)c(Br)cc12)C1CC1 [SB-742251]")
6
>>> readout_value("COC(=O)c1c(-c2ccccc2)c2cc(C(=O)O)ccc2c(=O)n1Cc1ccccc1")
0

# lookup: %Inh of Fc1cccc(COc2nnc(-c3ccc4c(c3)CCO4)o2)c1
0

Bench note: what %Inh did COc1cc2ncn(-c3cc(OCC4CCCO4)c(C(N)=O)s3)c2cc1OC (stereo not drawn) [GSK204607] show?
0

Please report the recorded %Inh for Cc1csc(-c2nc(Nc3ccncc3)c3ccccc3n2)n1 [GW869640] .
4

Please give the measured %Inh for this compound: Cc1ccc(NC(=O)Nc2cccc(Cl)c2)cc1-c1ccc(C(=O)Nc2ccncc2)cc1 [GSK1398468]
5

Could you tell me which %Inh is on file for Cc1cc(N2Cc3ccccc3C2)nc(Nc2ccc(S(=O)(=O)N3CCOCC3)cc2)n1.Cl [GSK1669917] ?
0

# lookup: %Inh of COc1ccc(C2=C(Nc3cccc(C(=O)O)c3)C(=O)NC2=O)cc1 [SB-390765]
14

Quick one: %Inh of COc1ccc(CNC(=O)NC2CCN(c3ccnc(Nc4cc(OC)c(OC)c(OC)c4)n3)C2)cc1 (stereo not drawn) [GSK1379748] ?
0

%Inh for Cc1c(Cn2ccn3c(=O)cc(N4CCOCC4)nc23)cccc1C(F)(F)F [GSK2289044] ?
0

Which value of %Inh has been reported for O=C(Nc1n[nH]c2nc(-c3nccs3)c(Br)cc12)C1CCCC1 [SB-742609] in the records?
5
